System: glucocerebrosidase (Gcase) (Homo sapiens)
Experiment summary: Glucocerebrosidase (Gcase) activation assay, 4-methylumbelliferyl-beta-D-glucopyranoside substrate, fluorescence
Type: biochemical
Condition context: 0.25 h, pH 4.7, test compound at 0.1 μM, 10 nM GCase, 100 nM saposin C, read-out: Percent Gcase Activation 0.1 μM Test Compound
Endpoint name: activation at 0.1 µM

What does the record list as activation at 0.1 µM for CCC(NC(=O)c1ccn2c(C)cc(C)nc12)c1nc2ccccc2[nH]1 (stereo not shown) ?
< 10%

Same lookup for COCc1cc(C(F)F)nc2c(C(=O)NC(C)(C)C3CC3)ccn12 , please.
> 20%

// next record Cc1cc(C)n2ccc(C(=O)NC(C)c3ccc4ccccc4c3)c2n1 (stereo not shown)
> 20%

What do you get for COC1CCC(Nc2cc(C)n3ccc(C(=O)NC(C)(C)C4CC4)c3n2)CC1 (stereo not shown) ?
< 10%

Okay, and Cc1nc2c(C(=O)NC(C)(C)C3CC3)ccn2c2c1CCC2 ?
< 10%

Thanks! And Cc1cc(C)n2ccc(C(=O)NC(C)c3cccc4ccccc34)c2n1 (stereo not shown) ?
10 to 20%

// repeat for Cc1cc(C)n2ccc(C(=O)N[C@@H](C)c3ccc(Cl)cc3)c2n1 and report
> 20%

Try Cc1cc(C)n2ccc(C(=O)NC(C)c3cccc4c3OCCCO4)c2n1 (stereo not shown) next.
10 to 20%

Try this compound too: Cc1cc(C)n2ccc(C(=O)NC3(c4ccc(F)cc4)CCOCC3)c2n1
< 10%

Now the same for Cc1cc(C)n2ccc(C(=O)NC(C)(C)c3ccc4c(c3)OCCO4)c2n1
> 20%

Next record, please: Cc1nc2c(C(=O)N[C@@H](C)C3CC3)ccn2c(C)c1-c1ccc(F)cc1
< 10%

Same question, Cc1cn2ccc(C(=O)NC(C)(C)C3CC3)c2nc1-c1ccc(F)cc1 this time
< 10%

Likewise for C#Cc1ccc(NC(=O)c2ccn3c(C)cc(-c4cccnc4)nc23)cc1 ?
> 20%

* * *

System: UniProtKB P04062
Sequence (P04062 40-536): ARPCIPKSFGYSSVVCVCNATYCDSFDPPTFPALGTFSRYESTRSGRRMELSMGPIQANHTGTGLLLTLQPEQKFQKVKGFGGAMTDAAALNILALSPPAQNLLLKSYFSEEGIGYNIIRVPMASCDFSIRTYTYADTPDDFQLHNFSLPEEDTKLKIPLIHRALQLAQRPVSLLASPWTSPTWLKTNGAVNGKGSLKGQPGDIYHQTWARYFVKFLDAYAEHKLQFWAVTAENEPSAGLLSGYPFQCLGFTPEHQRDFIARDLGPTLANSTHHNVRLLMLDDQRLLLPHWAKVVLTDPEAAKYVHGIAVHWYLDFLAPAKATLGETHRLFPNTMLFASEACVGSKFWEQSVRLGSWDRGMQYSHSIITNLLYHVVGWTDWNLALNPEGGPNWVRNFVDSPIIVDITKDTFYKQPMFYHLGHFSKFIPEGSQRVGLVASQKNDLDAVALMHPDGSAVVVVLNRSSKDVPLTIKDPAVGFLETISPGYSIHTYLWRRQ
Experiment summary: Glucocerebrosidase (Gcase) activation assay, 4-methylumbelliferyl-beta-D-glucopyranoside substrate, fluorescence
Type: biochemical
Condition context: 0.25 h, pH 4.7, test compound at 1.0 μM, 10 nM GCase, 100 nM saposin C, read-out: Percent Gcase Activation 1 μM Test Compound
Below, each entry is listed with its recorded activation at 1 µM.

Example results:
>  <Compound>
CNc1cc(C)n2ccc(C(=O)NC(C)(C)C3CC3)c2n1

>  <System>
UniProtKB P04062

>  <Meas value>
> 60%

$$$$
>  <Compound>
Cc1cc(C)n2c(C)cc(C(=O)N[C@@H](C)C3CC3)c2n1

>  <System>
UniProtKB P04062

>  <Meas value>
> 60%

$$$$
>  <Compound>
Cc1cc(N2CCOCC2)nc2c(C(=O)NC(C)(C)C3CC3)ccn12

>  <System>
UniProtKB P04062

>  <Meas value>
> 60%

$$$$
>  <Compound>
Cc1cc(C)n2ccc(C(=O)NC(C)c3nnn(C4CC4)n3)c2n1 (centres unmarked)

>  <System>
UniProtKB P04062

>  <Meas value>
< 30%

$$$$

Next up:
GET /values?readout=activation at 1 µM&item= Cc1cc(C)n2ccc(C(=O)NC(CO)c3cccc4ccccc34)c2n1 (centres unmarked)
30 to 60%

* * *

// activation at 1 µM lookup, one value per entry
System: glucocerebrosidase (Gcase) (Homo sapiens)
Sequence (P04062 40-536): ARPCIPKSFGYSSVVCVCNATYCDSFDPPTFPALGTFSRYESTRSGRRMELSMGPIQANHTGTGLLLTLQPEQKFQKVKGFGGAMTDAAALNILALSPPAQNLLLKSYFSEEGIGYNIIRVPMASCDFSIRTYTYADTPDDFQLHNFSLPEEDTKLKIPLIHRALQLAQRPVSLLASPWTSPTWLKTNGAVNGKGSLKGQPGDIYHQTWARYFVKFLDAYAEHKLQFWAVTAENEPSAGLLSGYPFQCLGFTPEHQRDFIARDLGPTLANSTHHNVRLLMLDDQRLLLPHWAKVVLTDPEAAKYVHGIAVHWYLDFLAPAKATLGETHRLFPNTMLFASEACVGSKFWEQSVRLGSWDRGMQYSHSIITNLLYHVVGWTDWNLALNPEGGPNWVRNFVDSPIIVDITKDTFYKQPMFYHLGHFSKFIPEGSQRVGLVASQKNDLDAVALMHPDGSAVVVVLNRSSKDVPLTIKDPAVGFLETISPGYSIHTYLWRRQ
Experiment summary: Glucocerebrosidase (Gcase) activation assay, 4-methylumbelliferyl-beta-D-glucopyranoside substrate, fluorescence
Format: biochemical
Condition context: 0.25 h, pH 4.7, test compound at 1.0 μM, 10 nM GCase, 100 nM saposin C, read-out: Percent Gcase Activation 1 μM Test Compound

>  <Compound>
Cc1cc(C)n2ccc(C(=O)NC(C)(c3ccccc3)c3ccccc3)c2n1

>  <Meas value>
> 60%

$$$$
>  <Compound>
CCC(NC(=O)c1ccn2c(C)cc(C)nc12)C12CC3CC(C1)C(C3)C2 (stereo not drawn)

>  <Meas value>
> 60%

$$$$
>  <Compound>
Cc1cc(-c2cccnc2)nc2c(C(=O)NC(C3CC3)C(F)(F)F)ccn12 (stereo not drawn)

>  <Meas value>
> 60%

$$$$
>  <Compound>
C#Cc1ccc(NC(=O)c2ccn3c(C)cc(-c4cccnc4)nc23)cc1

>  <Meas value>
> 60%

$$$$
>  <Compound>
COCC(C)(NC(=O)c1ccn2c(C)cc(C)nc12)c1ccccc1 (stereo not drawn)

>  <Meas value>
> 60%

$$$$
>  <Compound>
CCC(NC(=O)c1ccn2c(C)cc(C)nc12)c1ncccc1C (stereo not drawn)

>  <Meas value>
< 30%

$$$$
>  <Compound>
COCc1cc(C(F)F)n2ccc(C(=O)NC(C)(C)C3CC3)c2n1

>  <Meas value>
> 60%

$$$$
>  <Compound>
COCc1cc(C)nc2c(C(=O)N[C@H]3CC[C@H](OCC(C)C)CC3)ccn12

>  <Meas value>
> 60%

$$$$
>  <Compound>
Cc1nc2c(C(=O)N[C@H]3CC[C@H](OC(C)(C)C)CC3)ccn2c2c1CCC2

>  <Meas value>
< 30%

$$$$
>  <Compound>
COc1cccc([C@H](C)NC(=O)c2ccn3c(C)cc(C)nc23)c1

>  <Meas value>
> 60%

$$$$

Given the entry Cc1cc(C(F)F)n2ccc(C(=O)N[C@H]3CC[C@H](OC(C)(C)C)CC3)c2n1 , report its measured activation at 1 µM.
> 60%

Also Cc1cccc(C2CC2C(C)NC(=O)c2ccn3c(C)cc(C)nc23)c1 (stereo not drawn) ?
> 60%

* * *

System: glucocerebrosidase (Gcase) (Homo sapiens)
Experiment summary: Glucocerebrosidase (Gcase) activation assay, 4-methylumbelliferyl-beta-D-glucopyranoside substrate, fluorescence
Format: biochemical
Condition context: 0.25 h, pH 4.7, test compound at 0.1 μM, 10 nM GCase, 100 nM saposin C, read-out: Percent Gcase Activation 0.1 μM Test Compound
activation at 0.1 µM listing for selected molecules.

Here is how some molecules turned out for activation at 0.1 µM.
>  <Molecule>
Cc1cc(-c2cncnc2)nc2c(C(=O)NC(C)(C)C3CC3)ccn12

>  <activation at 0.1 µM>
10 to 20%

$$$$
>  <Molecule>
COCc1cc(C(F)F)nc2c(C(=O)NC(C)(C)C3CCC3)ccn12

>  <activation at 0.1 µM>
10 to 20%

$$$$
>  <Molecule>
Cc1cc(-c2ccccn2)nc2c(C(=O)NC(C)(C)C3CC3)ccn12

>  <activation at 0.1 µM>
> 20%

$$$$

Find the recorded activation at 0.1 µM belonging to Cc1cc(-c2ncccn2)nc2c(C(=O)NC(C)(C)C3CC3)ccn12 and report it.
10 to 20%

Same question for COCC(C)(NC(=O)c1ccn2c(C)cc(C)nc12)c1ccccc1 (centres unmarked) please.
< 10%
